IC50, Replicase polyprotein 1a (Severe acute respiratory syndrome-related coronavirus), per-entry values.
Answer in nM, number only, no unit symbol.

- Cc1cccc2nc(CSC(=S)NCc3cccnc3)cn12: 383

Please turn your attention to the following entry.
The molecule `S=C([S-])NCc1cccnc1.[K+]` , tested on Replicase polyprotein 1a (Severe acute respiratory syndrome-related coronavirus), showed IC50 of 165

----------
Tested on: SARS-CoV-2
Assay: microbe, parasite or virus in culture
Conditions: Severe acute respiratory syndrome coronavirus 2, Vero, 16 h
attribute.measured: pIC50
// pIC50 here means minus log10 of the molar concentration (mol/L)

Sure, the documented pIC50 for `Cc1cccc2nc(CSC(=S)NCc3cccnc3)cn12` is 5.97
